# EXPERIMENTAL_SYSTEM: G1 APOL1 (Homo sapiens, UniProt O14791, I384M/S342G)
# Construct: expressed in transfected cells
# Sequence (O14791 28-398 S342G/I384M): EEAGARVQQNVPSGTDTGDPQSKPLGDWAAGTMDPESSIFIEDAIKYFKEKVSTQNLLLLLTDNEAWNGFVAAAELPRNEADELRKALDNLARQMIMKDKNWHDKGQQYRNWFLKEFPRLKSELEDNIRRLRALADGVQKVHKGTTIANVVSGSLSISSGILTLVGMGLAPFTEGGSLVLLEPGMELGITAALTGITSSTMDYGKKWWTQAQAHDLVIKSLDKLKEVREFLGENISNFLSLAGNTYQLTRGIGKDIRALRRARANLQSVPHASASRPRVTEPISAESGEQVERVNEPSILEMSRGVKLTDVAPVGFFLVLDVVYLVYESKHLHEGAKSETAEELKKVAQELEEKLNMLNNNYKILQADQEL
# ASSAY_COMMENT: Acute APOL1 Thallium Assay with Inducible Stable Clones of HEK 293 Cells
# Format: cell-based
# RUN_CONDITIONS: HEK 293 inducible stable clones, G1 APOL1; read-out: Thallium Assay (IC50)
QUANTITY: IC50

- COMPOUND: "CC(CO)C(=O)NCCc1c(-c2ccc(F)cc2)[nH]c2c(F)cc(F)cc12 (racemic) [Compound 357]"
  EXPERIMENTAL_SYSTEM: "G1 APOL1 (Homo sapiens, UniProt O14791, I384M/S342G)"
  IC50: "< 250 nM"

Prompt line: Give G1 APOL1 (Homo sapiens, UniProt O14791, I384M/S342G) IC50 for CC(CO)(CO)NC(=O)CCc1c(-c2ccc(F)cc2)[nH]c2c(F)cc(Cl)cc12 [Compound 197]
Response line: 250 to 1000 nM
